Biological target: human ether-à-go-go-related gene (hERG) potassium channel (human, UniProt Q12809)
Sequence (Q12809 whole entry, looked up): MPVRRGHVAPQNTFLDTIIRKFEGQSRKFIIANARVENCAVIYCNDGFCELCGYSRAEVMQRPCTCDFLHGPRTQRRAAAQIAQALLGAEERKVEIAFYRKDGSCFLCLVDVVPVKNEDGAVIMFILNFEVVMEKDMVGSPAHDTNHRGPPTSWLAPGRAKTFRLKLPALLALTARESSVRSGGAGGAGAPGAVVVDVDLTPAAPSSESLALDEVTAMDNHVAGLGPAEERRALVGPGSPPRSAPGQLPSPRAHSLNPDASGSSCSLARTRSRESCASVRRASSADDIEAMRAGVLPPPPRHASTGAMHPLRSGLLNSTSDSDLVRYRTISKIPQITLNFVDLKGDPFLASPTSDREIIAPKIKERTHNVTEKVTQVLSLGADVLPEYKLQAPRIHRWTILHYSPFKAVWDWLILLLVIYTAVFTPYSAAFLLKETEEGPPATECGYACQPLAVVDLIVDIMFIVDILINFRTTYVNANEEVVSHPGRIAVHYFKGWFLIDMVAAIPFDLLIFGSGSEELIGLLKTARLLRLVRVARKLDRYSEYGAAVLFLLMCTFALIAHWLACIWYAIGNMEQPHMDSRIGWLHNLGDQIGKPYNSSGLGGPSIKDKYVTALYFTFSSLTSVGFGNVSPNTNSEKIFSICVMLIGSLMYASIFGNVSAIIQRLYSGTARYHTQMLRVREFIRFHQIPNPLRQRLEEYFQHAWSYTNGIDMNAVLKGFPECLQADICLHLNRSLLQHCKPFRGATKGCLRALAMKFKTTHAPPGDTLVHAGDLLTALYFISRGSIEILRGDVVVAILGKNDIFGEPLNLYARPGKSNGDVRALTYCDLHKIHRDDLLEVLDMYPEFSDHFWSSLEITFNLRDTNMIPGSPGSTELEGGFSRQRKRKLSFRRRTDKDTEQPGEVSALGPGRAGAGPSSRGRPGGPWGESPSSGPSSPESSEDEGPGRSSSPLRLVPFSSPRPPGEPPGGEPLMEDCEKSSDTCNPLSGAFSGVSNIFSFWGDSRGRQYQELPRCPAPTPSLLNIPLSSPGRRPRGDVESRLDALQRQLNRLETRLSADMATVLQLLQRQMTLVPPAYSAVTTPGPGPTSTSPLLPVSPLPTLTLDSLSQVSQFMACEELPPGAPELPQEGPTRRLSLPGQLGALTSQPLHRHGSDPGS
Assay: primary screen, population patch clamp on CHO cells stably expressing hERG; higher = less effect of the substance
Hit rate of the full screen: of about 310,000 compounds, about 2,200 (0.71%) showed an effect of 50% or more. The effect is printed as a negative number. This excerpt belongs to a sample that is enriched for strong results.
Think of -20% as a floor: if hERG current change (%, negative = inhibition) at 1uM stands on it or above, it is Fulfilled; beneath it, Not fulfilled.

Ask: Answer whether hERG current change (%, negative = inhibition) at 1uM of `CCCn1c(=N)c(C(=O)NCc2ccc3c(c2)OCO3)cc2c(=O)n3cccc(C)c3nc21` is greater than or equal to -20%.
Reply: Not fulfilled

Ask: Tell me whether hERG current change (%, negative = inhibition) at 1uM is at least -20% here: `CC1CCN(CCc2nc3cc(NS(=O)(=O)c4ccccc4)ccc3n2C)CC1`
Reply: Not fulfilled

Ask: Is the recorded value of hERG current change (%, negative = inhibition) at 1uM equal to or greater than -20% for this compound? `Cn1c(CN2CCCCC2)nc2cc(NS(=O)(=O)c3ccc(F)cc3)ccc21`
Reply: Not fulfilled

Ask: Decide: hERG current change (%, negative = inhibition) at 1uM of `CC(=O)c1ccc(N2CCN(C(=O)COc3ccc(F)cc3)CC2)c(F)c1` >= -20%?
Reply: Not fulfilled

Ask: Is hERG current change (%, negative = inhibition) at 1uM for `Cn1c(CCN2CCOCC2)nc2cc(NS(=O)(=O)c3ccccc3)ccc21` at or above -20%?
Reply: Fulfilled

Ask: Does `CC(=O)c1ccc(N2CCN(C(=O)COc3ccccc3F)CC2)c(F)c1` have a reported hERG current change (%, negative = inhibition) at 1uM of at least -20%?
Reply: Fulfilled

Ask: Evaluate `O=C(COc1ccc(-n2cnnn2)cc1)NCCc1ccc(F)cc1` : hERG current change (%, negative = inhibition) at 1uM at minimum -20%?
Reply: Fulfilled

Ask: API: above_or_equal(metric=hERG current change (%, negative = inhibition) at 1uM, cutoff=-20%) for item Cc1cccn2c(=O)c3cc(C(=O)NC4CCCC4)c(=N)n(CC4CCCO4)c3nc12 (centres unmarked)
Reply: Not fulfilled

Ask: Say whether Cc1cccn2c(=O)c3cc(S(=O)(=O)c4ccccc4)c(=N)n(CC4CCCO4)c3nc12 (centres unmarked) shows hERG current change (%, negative = inhibition) at 1uM of -20% or more.
Reply: Fulfilled

Ask: Textbook exercise: given the entry `Cn1c(CCN2CCCCC2)nc2cc(NS(=O)(=O)c3ccc(F)cc3)ccc21` , state whether its hERG current change (%, negative = inhibition) at 1uM is greater than or equal to -20%.
Reply: Not fulfilled

Ask: Evaluate COCc1ccc(C(=O)N(C)CC2CCCN(CCc3ccc(Cl)cc3)C2)o1 (centres unmarked) : hERG current change (%, negative = inhibition) at 1uM at minimum -20%?
Reply: Not fulfilled

Ask: Quick check: does `CC(=O)Nc1ccc2c(c1)nc(CCN1CCC(C)CC1)n2C` have hERG current change (%, negative = inhibition) at 1uM greater than or equal to -20%?
Reply: Fulfilled

Ask: Form field: hERG current change (%, negative = inhibition) at 1uM at least -20%? Entry: COCc1ccc(C(=O)N(C)CC2CCCN(CCc3ccc(OC)cc3)C2)o1 (centres unmarked)
Reply: Not fulfilled

Ask: # check: hERG current change (%, negative = inhibition) at 1uM of `CN(C)S(=O)(=O)c1cccc(-c2nnc(SCc3ccc4c(c3)OCCO4)o2)c1` is greater than or equal to -20%
Reply: Fulfilled

Ask: Hi team, for Cc1cccn2c(=O)c3cc(C(=O)NCC4CCCO4)c(=N)n(CC4CCCO4)c3nc12 (centres unmarked) , is the recorded hERG current change (%, negative = inhibition) at 1uM at or above -20%?
Reply: Not fulfilled

Ask: Hi, just wondering whether `Cc1cccn2c(=O)nc(SCC(=O)NCc3ccc4c(c3)OCO4)nc12` shows hERG current change (%, negative = inhibition) at 1uM of -20% or higher.
Reply: Fulfilled

Ask: Hi team, for `COc1ccc(CNC(=O)c2cc(COc3c(F)cccc3F)on2)cc1OC` , is the recorded hERG current change (%, negative = inhibition) at 1uM at or above -20%?
Reply: Fulfilled

Ask: Kindly determine if hERG current change (%, negative = inhibition) at 1uM recorded for `CCc1cccc2c(C=C(C#N)C#N)cn(CC(=O)N3CCCC3)c12` is above or exactly -20%.
Reply: Fulfilled

Ask: Check the entry `CCC(=O)c1ccc(N2CCN(C(=O)COc3ccccc3F)CC2)c(F)c1` : does hERG current change (%, negative = inhibition) at 1uM equal or exceed -20%?
Reply: Fulfilled

Ask: # bool: hERG current change (%, negative = inhibition) at 1uM of `CCC(=O)Nc1ccc2c(c1)nc(CCN1CCC(C)CC1)n2C` >= -20%
Reply: Fulfilled

====

Target: human ether-à-go-go-related gene (hERG) potassium channel (human, UniProt Q12809)
Experiment: primary screen, population patch clamp on CHO cells stably expressing hERG; higher = less effect of the substance
Screen size: about 310,000 compounds; about 2,200 (0.71%) showed an effect of 50% or more. Effects have a minus sign here. This excerpt belongs to a sample that is enriched for strong results.
Quantity Measured: hERG current change (%, negative = inhibition) at 1uM

Ask: // hERG current change (%, negative = inhibition) at 1uM lookup, key: `Cc1ccccc1CN(C)CC(=O)Nc1ccccc1-c1ccccc1`
Reply: -9.53%

Ask: For the compound `CCOc1ccc(NC(=O)CN2CCN(CC(=O)Nc3ccc(C(N)=O)cc3)CC2)cc1` , what hERG current change (%, negative = inhibition) at 1uM is on record?
Reply: -36.9%

Ask: For the compound `CCOc1ccc(NC(=O)CN2CCN(CC(=O)c3ccc(OC)c(OC)c3)CC2)cc1` , what hERG current change (%, negative = inhibition) at 1uM is on record?
Reply: -56.3%

Ask: Fill in the blank: the reported hERG current change (%, negative = inhibition) at 1uM of `CCc1ccc(NC(=O)C(=O)NCCN2CCN(S(C)(=O)=O)CC2)cc1` is ____.
Reply: 18.2%

Ask: Consider the compound shown here: `CCOc1ccc(NC(=O)CN2CCN(CC(=O)Nc3cccc(F)c3)CC2)cc1` What is its recorded hERG current change (%, negative = inhibition) at 1uM?
Reply: -97.2%

Ask: Query: hERG current change (%, negative = inhibition) at 1uM; subject: `O=C(CNS(=O)(=O)c1ccc(Br)s1)NCCc1ccc(Cl)cc1`
Reply: 16.1%

Ask: Any idea what hERG current change (%, negative = inhibition) at 1uM was measured for `CCOC(=O)c1ccc2c(c1)n(CC)c(C)[n+]2CC.[I-]` ?
Reply: 1.24%

Ask: What value of measured hERG current change (%, negative = inhibition) at 1uM is listed for `Cc1ccc(NC(=O)C(=O)NCCN2CCN(Cc3ccc([N+](=O)[O-])cc3)CC2)cc1` ?
Reply: -53.3%

Ask: Could you share which hERG current change (%, negative = inhibition) at 1uM value was measured for O=C(O)CC(NC(=O)C12CC3CC(CC(C3)C1)C2)c1cc([N+](=O)[O-])ccc1Cl (stereo not shown) ?
Reply: 2.33%

Ask: Looking for the measured hERG current change (%, negative = inhibition) at 1uM of `CCN1CCN(CCNC(=O)Nc2ccc([N+](=O)[O-])cc2)CC1` , can you help?
Reply: 13.2%

Ask: Quick one: hERG current change (%, negative = inhibition) at 1uM of O=c1nc2ccccc2c2n1CC(CN1CCN(c3ccccc3F)CC1)N2 (stereo not shown) ?
Reply: -20.7%

Ask: Requested read-out: hERG current change (%, negative = inhibition) at 1uM. Entry: `O=C(CN1CCN(CC(=O)Nc2cccc(F)c2)CC1)Nc1ccc(-c2ccccc2)cc1`
Reply: 13.6%

Ask: Entry `CCn1c(/C=C/N(C)c2ccccc2)[n+](CC)c2ccc(Cl)cc21.[I-]` : reported hERG current change (%, negative = inhibition) at 1uM = ?
Reply: -7.59%

Ask: # hERG current change (%, negative = inhibition) at 1uM lookup, item `O=C(c1ccc(F)cc1)C1CCN(C(=O)NCc2ccccc2)CC1`
Reply: -5.59%

Ask: # lookup: hERG current change (%, negative = inhibition) at 1uM of `CCOc1ccc(NC(=O)CN2CCN(CC(=O)Nc3ccc(F)c(F)c3)CC2)cc1`
Reply: -87.9%

Ask: Entry under review: `CCOc1ccc(NC(=O)CNC(=O)c2ccc(OC)c(OC)c2)cc1` . Reported hERG current change (%, negative = inhibition) at 1uM?
Reply: 5.55%

Ask: Tell me the measured hERG current change (%, negative = inhibition) at 1uM of `Cc1ccc(S(=O)(=O)Nc2cccc(C(=O)NCc3ccc(S(N)(=O)=O)cc3)c2)cc1` , please.
Reply: 12.7%

Ask: Data request, read-out hERG current change (%, negative = inhibition) at 1uM, for `CCCCc1ccc(NC(=O)C(=O)NCCN2CCN(Cc3ccc([N+](=O)[O-])cc3)CC2)cc1`
Reply: -6.8%

Ask: Entry `CCOc1ccc(NC(=O)CN2CCN(CC(=O)Nc3ccc(Cl)c(C(F)(F)F)c3)CC2)cc1` : reported hERG current change (%, negative = inhibition) at 1uM = ?
Reply: -6.47%
